# test description: chemical genetic growth profiling, strain panel (AID 1159580);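 further: tested at 20 µM; growth read once vehicle control cultures reached saturation at 30 °C; 1 = growth at the plate median or of vehicle wells; lower values mean less growth of the strain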
# study conditions: S. cerevisiae deletion strains, growth OD, locus YML120C, strain ndi1, active compounds read low
The whole screen tested about 5,500 compounds, of which about 2,000 (36%) were called active. Not shown: some 18% with an inconclusive outcome. The list shows a part of the results.
Recorded normalized growth values for a group of molecules are listed next.
observation type: normalized growth

INSERT INTO results (molecule, observation_type, meas_value) VALUES
  ('CSCCC(NC=O)C(=O)NC(CC(C)C)C(=O)NC(Cc1ccccc1)C(=O)O (configuration not stated)', 'normalized growth', 1.01),
  ('C[C@]12C=CC(=O)C=C1CCC1C2CC[C@]2(C)C(=O)CCC12 (some centres not stated)', 'normalized growth', 0.983),
  ('COc1cc(OC)c(C(C)=O)c(O)c1C', 'normalized growth', 0.889),
  ('Cc1ncc([N+](=O)[O-])n1CCO', 'normalized growth', 0.942),
  ('CCOC(=O)C1=C(C)NC(C)=C(C(=O)OC)C1c1cccc([N+](=O)[O-])c1 (configuration not stated)', 'normalized growth', 1.01),
  ('COc1cc(OC)c2c(c1Cl)OC1(C2=O)C(O)=CC(=O)CC1C (configuration not stated)', 'normalized growth', 1.01),
  ('COc1ccc2[nH]cc(CCNC(C)=O)c2c1', 'normalized growth', 0.982),
  ('Nc1ncnc2nc[nH]c12', 'normalized growth', 0.97),
  ('CN(C)c1nc(N(C)C)nc(N(C)C)n1', 'normalized growth', 0.952),
  ('CCOc1ccc(Cc2nccc3cc(OCC)c(OCC)cc23)cc1OCC', 'normalized growth', 0.965),
  ('O=C1c2ccccc2-c2cccc3cccc1c23', 'normalized growth', 0.949),
  ('N#C/C(=C\c1ccc(O)cc1)C(=O)O', 'normalized growth', 0.994);

* * *

# test description: chemical genetic growth profiling, strain panel (AID 1159580);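 further: tested at 20 µM; growth read once vehicle control cultures reached saturation at 30 °C; 1 = growth at the plate median or of vehicle wells; lower values mean less growth of the strain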
# study conditions: S. cerevisiae deletion strains, growth OD, locus YPR163C, strain tif3, active compounds read low
Among all 5,500 compounds or so, about 2,000 (36%) were called active. About 18% were inconclusive and are not listed. This is one part of the list.
Assign labels as follows, please: yes (1) for normalized growth below 1; no (0) for normalized growth equal to or exceeding 1.

INSERT INTO measurements (compound, answer_label) VALUES
  ('CC(C)=CCOc1cc2oc(=O)ccc2cc1O', 'yes (1)'),
  ('COc1cc(O)c(C)c(O)c1', 'no (0)'),
  ('CC(C)=CCOc1c2occc2cc2ccc(=O)oc12', 'yes (1)'),
  ('COc1ccc2ccc(=O)oc2c1CC=C(C)C', 'yes (1)'),
  ('CC(=O)OC1CCC2C3CCc4cc(O)ccc4C3CCC12C (stereo unspecified)', 'no (0)');

* * *

# test description: chemical genetic growth profiling, strain panel (AID 1159580);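 further: tested at 20 µM; growth read once vehicle control cultures reached saturation at 30 °C; 1 = growth at the plate median or of vehicle wells; lower values mean less growth of the strain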
# study conditions: S. cerevisiae deletion strains, growth OD, locus YNL128W, strain TEP1, active compounds read low
The whole screen tested about 5,500 compounds, of which about 2,000 (36%) were called active. Inconclusive results (about 18%) are left out. Some of the results follow.
observation type: normalized growth

INSERT INTO assay_data (compound, observation_type, meas_value) VALUES
  ('COc1c2occc2cc2ccc(=O)oc12', 'normalized growth', 0.962),
  ('CC1=C2[C@](C)(C=CC1=O)C[C@H](O)[C@H]1[C@H](C)C(=O)O[C@]21C', 'normalized growth', 1.02),
  ('Cc1cc(N=CNO)c2ccccc2n1', 'normalized growth', 0.966),
  ('COc1cc2ccc(=O)oc2c2ccoc12', 'normalized growth', 0.871),
  ('OCCN1CCN(CCCN2c3ccccc3Sc3ccc(Cl)cc32)CC1', 'normalized growth', 1),
  ('CCCC(=O)Nc1ncnc2c1ncn2C1O[C@@H]2COP(=O)(O)O[C@H]2[C@H]1OC(=O)CCC (stereo partly specified)', 'normalized growth', 1.02),
  ('CN(C)c1nc(N(C)C)nc(N(C)C)n1', 'normalized growth', 1.02),
  ('CC(=O)/C(=C\N(C)C)Sc1nnc(C(F)(F)F)n1C', 'normalized growth', 1.01),
  ('O=C(O)c1cc2cc(Cl)ccc2[nH]1', 'normalized growth', 1.03),
  ('COc1cccc2c1[C@@H]1CN(CCCCn3c(=O)[nH]c4c(sc5ncc(-c6ccccc6)nc54)c3=O)C[C@@H]1CO2', 'normalized growth', 1.02),
  ('N#Cc1ccc2c(c1)N(CCCN1CCC(O)CC1)c1ccccc1S2', 'normalized growth', 1.01);
